Just for reference, patent US20160075689A1 is where these values come from.

- test target: EndoG (Homo sapiens, UniProt Q14249)
- Sequence (Q14249 49-297, species assumed): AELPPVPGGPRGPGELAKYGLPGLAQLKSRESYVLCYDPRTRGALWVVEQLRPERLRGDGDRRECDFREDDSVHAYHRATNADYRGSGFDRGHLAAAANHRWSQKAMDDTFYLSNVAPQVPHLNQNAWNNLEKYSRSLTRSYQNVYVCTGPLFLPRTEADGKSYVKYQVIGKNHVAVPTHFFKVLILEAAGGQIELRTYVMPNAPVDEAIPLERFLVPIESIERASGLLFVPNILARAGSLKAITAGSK
- procedure details: High-throughput EndoG screening assay
- Assay type: biochemical
- condition set: 20 min; compound 1 μM; read-out: % EndoG activity in the presence of the compound
- Description: A reaction mixture was prepared in each well of a white 96-well plate (Costar, Corning, N.Y.) as follows: 0.25 μM Cy5.5-labeled oligonucleotide (described in US provisional patent filed Oct. 19, 2012, Ser. No. 61/716,097) 0.3 mM MgCl2, 10 mM Tris-HCl, pH 7.4, 1 μl DMSO containing 5 or 50 ng of test compound, and nuclease-free water for a total reaction volume of 100 μl. […]
measure name: remaining activity at 1 µM (%)
State just the number; it will be interpreted in %.

Field: example entries. Status: answers known.
1) O=C1NC(=S)NC(=O)C1=Cc1cn(C(=O)c2ccc3ccccc3c2)c2ccc(Cl)cc12 [PNR-3-80]
36
2) O=C1NC(=S)NC(=O)C1=Cc1cn(Cc2ccccc2Br)c2ccccc12 [PNR-7-8]
58
3) O=C1NC(=O)C(=Cc2cn(Cc3cccc(C(F)(F)F)c3)c3ccc(Cl)cc23)C(=O)N1 [PNR-7-17]
57.1
4) CN1C(=O)C(=Cc2cn(Cc3cccc(C(F)(F)F)c3)c3ccccc23)C(=O)N(C)C1=O [PNR-7-16]
17.2
5) O=C1NC(=S)NC(=O)C1=Cc1cn(Cc2ccc3ccccc3c2)c2ccccc12 [PNR-6-98]
15.7

Then there is this molecule:
INPUT: Indicate its recorded remaining activity at 1 µM; the molecule in question is CN1C(=O)C(=Cc2cn(C(=O)c3ccc4ccccc4c3)c3ccc(Cl)cc23)C(=O)N(C)C1=O [PNR-6-60]
OUTPUT: 67.9
